- Test system: RARa homodimer (NR concentration 270 nM)
- assay.details: PBM binding z-score (relative to random genomic background probes); higher = stronger binding; sequences stand for … in GC…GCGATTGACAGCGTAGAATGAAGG
Please use satisfied whenever PBM binding z-score is not below -0.004, and not satisfied whenever it is.

Request: Please indicate if the recorded PBM binding z-score for GGAACGAGGGTAAGTTGATAGCAGAGTTTGATGG meets or exceeds -0.004.
Response: satisfied

Request: Is the recorded value of PBM binding z-score equal to or greater than -0.004 for this sequence? CCTCGGAGGACAGAAGGTCAGAGCGGTCCGCTTT
Response: satisfied

Request: In plain terms: is recorded PBM binding z-score at least -0.004 for CCTACTGGGCCATCAGGTTATTGATATCAACGTT ?
Response: satisfied

Request: Decide: is the reported value of PBM binding z-score for CTCGAAAGGTCGCGCTCAGGTGAGTATACCAAAC equal to or greater than -0.004?
Response: not satisfied

Request: Determine whether this sequence has PBM binding z-score no lower than -0.004: TGAATGAGGTTAGAGATCAGGGAACGTGGCGTCG
Response: satisfied

Request: Given the entry CCTAGGTGGTCAAGGTCACACACGCTATAGGTAC , answer whether its PBM binding z-score meets or surpasses -0.004.
Response: satisfied

Request: Threshold query (PBM binding z-score >= -0.004) on TCTTGTAGATCAGCAGGTGAAGAAAGCTGGCCAA
Response: not satisfied

Request: Check the entry CCGACTGGGGCATAAGGTTACCATAAGCCAGCCC : does PBM binding z-score equal or exceed -0.004?
Response: not satisfied

Request: Is it the case that CCTTACGGGTCACGAGCTTATAGCACGACGAGCG has PBM binding z-score reaching or exceeding -0.004?
Response: satisfied

Request: Reported PBM binding z-score at or above -0.004? TGAATGAGGTTATAATATCAGGGAACGTTGCAAA
Response: satisfied

Request: Confirm if PBM binding z-score reported for the sequence CAAACTAGGTCAAGGTCAGAGTCGGTTTGTGCCA is -0.004 or above.
Response: satisfied

Request: # check: PBM binding z-score of GCATCTAGGTAATACAAGGTGAAAGTCCGATTGT is greater than or equal to -0.004
Response: not satisfied

Request: Check the entry AGTCAAAGTTAAGGACGAGGTAACGTAAAGCACG : does PBM binding z-score equal or exceed -0.004?
Response: satisfied

Request: Dear colleague, could you confirm whether CGTCCAAGGTCAGGGTCAGTGAAAGAGACTCGAA has PBM binding z-score at or above -0.004?
Response: satisfied

Request: Item CAAACTAGGTCACGAAAGGCCAAAGTCGAATGAC with PBM binding z-score of -0.004 or above?
Response: satisfied

Request: Please tell me: is the sequence TCATATAGGTAAATGCTCGGTGAAAGTCCGATCT at or over -0.004 in terms of PBM binding z-score?
Response: satisfied

Request: Evaluate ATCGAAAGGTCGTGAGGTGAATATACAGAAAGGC : PBM binding z-score at minimum -0.004?
Response: satisfied

Request: Is reported PBM binding z-score greater than or equal to -0.004 here: TCATATAGGTAAAAGGTGAAAGACGGTGTGGTAA
Response: satisfied

Request: Could you tell me if the measured PBM binding z-score of TGAATGAGGTTAAAGATCATGGAACGTGGCGTCG reaches -0.004 or more?
Response: satisfied

Request: Decide: PBM binding z-score of GGACCGAGGGCAAGTTGATAGCAGAGTTTGATGG >= -0.004?
Response: not satisfied

Request: State whether the measured PBM binding z-score reaches -0.004, counting equality as reaching it, for GGAACGAGGGCATTCGGGTTGATAGCATGGCGAT
Response: not satisfied

Request: Given GCTTGTAAATCAAGGTTAAGAAAGACTAAGCTAA , state whether its PBM binding z-score is at least -0.004.
Response: not satisfied

Request: Would you say ATCGAAAGGTCTAGGTGAGTATAGAGAAAGGGAA shows PBM binding z-score at minimum -0.004?
Response: satisfied

Request: Does the sequence TCGAGTAGGTTAGGGGCATCCAGAATGGCGTCGA have recorded PBM binding z-score that is -0.004 or more?
Response: not satisfied

Request: Reported PBM binding z-score at or above -0.004? ACTATTAGTTGGCTTAGGGCAACCGATACGACGC
Response: satisfied

Request: Decide: is the reported value of PBM binding z-score for AGAACGAGGGCAATCAGTTGATAGCACGGGTGGC equal to or greater than -0.004?
Response: not satisfied

Request: Is it the case that CGTCCAAGGTCAAGGTCAGTGACAGAGACTCGAA has PBM binding z-score reaching or exceeding -0.004?
Response: satisfied

Request: Hi, just wondering whether CGTCAAAGTTGAACTAAGGTAACGTAAAGCACGC shows PBM binding z-score of -0.004 or higher.
Response: satisfied

Request: Check this sequence for PBM binding z-score at or above -0.004: ATCTCTAGGGAAAGTTCAGTGAAAGATCGATAGA
Response: satisfied

Request: Is it the case that CGTCCAAGGTCAGCACGTCAGTGAAAGCGACGTG has PBM binding z-score reaching or exceeding -0.004?
Response: satisfied

Request: Could you please find out whether CGAACTAGGTCATTGACAGGACCGTGAATAGTAA has PBM binding z-score that meets -0.004 or exceeds it?
Response: satisfied

Request: Is PBM binding z-score for ACTAGCAGGCCAAGGGTCACACAAGATTAGTCCG at or above -0.004?
Response: satisfied

Request: Given the entry ATATGTAGTTTAAGGGTCATTCAGGTTGGTTCGC , answer whether its PBM binding z-score meets or surpasses -0.004.
Response: satisfied

Request: Does the reported PBM binding z-score for CCTAACGGGTCACGAGGTTATAGCACGACGAGCG fall at or above the -0.004 mark?
Response: satisfied

Request: // inclusive: PBM binding z-score at least -0.004? input: AGAATGAGGTTATACGTAGATTAGGGAAGAAAGT
Response: satisfied

Request: hey, is PBM binding z-score for this one >= -0.004? CAAACTTGGTCAAAGGTCAAAGTCGAGCCAACCA
Response: satisfied

Request: Is it the case that GCTAGTTCGTCAGTAAAAGGTCACACACCGGTCG has PBM binding z-score reaching or exceeding -0.004?
Response: satisfied

Request: Is PBM binding z-score for CCTACTGGGCCATTCAGAGGTCATTGAACATATG at or above -0.004?
Response: satisfied

Request: Kindly determine if PBM binding z-score recorded for TCTGCTAGGTCAGTTGGTCAACTAACGAGCTGCC is above or exactly -0.004.
Response: not satisfied

Request: Is the recorded value of PBM binding z-score equal to or greater than -0.004 for this sequence? TCTTGCAGATCAGCAGGTTAAGAAAGCTGGCCAA
Response: not satisfied

Request: Dear colleague, could you confirm whether CGTCCAAGGTCAAGATCAGTGAAAGAGACTCGAA has PBM binding z-score at or above -0.004?
Response: satisfied

Request: Entry CCTTACGGGTCAATGACAGGTTATAGCATTTGGA : is its PBM binding z-score no less than -0.004?
Response: satisfied

Request: Exam item: decide whether the reported PBM binding z-score for GATACAGGGTCCAGGCCAGAGTACGCGTATTGAT is at least -0.004.
Response: not satisfied

Request: Is it the case that CAAACTAGGTCAAGGTCAACGTCGGTTTGTGCCA has PBM binding z-score reaching or exceeding -0.004?
Response: satisfied

Request: Quick check, PBM binding z-score >= -0.004? ACGAGCAGGCCAAGTTTGGGTCACTCAAACAAAG
Response: not satisfied

Request: Does PBM binding z-score meet or surpass -0.004 for TCATATAGGTAACGGTGAAAGTCGAACGATATGA ?
Response: satisfied

Request: Threshold query (PBM binding z-score >= -0.004) on ACTTACGGGTCGACGAGGTTATAGCACGCGTATA
Response: not satisfied

Request: Answer whether PBM binding z-score of ATCGAAAGGTCGAAGAGGTGAGTATACACCGTTT is greater than or equal to -0.004.
Response: satisfied
